Below is a list of entries, each paired with its recorded Z-AUC value.
Assay: qHTS drug screen for cell cycle checkpoint inhibitors in PARPi-resistant BRCA-mutant ovarian cancer cell lines. (AID 1963452)
Details: PEO1/OlaR viability, CellTiter-Glo luminescence, 96 h; measured here: PEO4 Z-AUC; stronger effect = lower value
# output: bare number, no unit

Answered cases to consult:
>>> recorded_number("C[C@H]1CN(C[C@H](Cc2ccccc2)C(=O)NCC(=O)O)CC[C@@]1(C)c1cccc(O)c1")
-0.529
>>> recorded_number("CN(C)C/C=C/C(=O)Nc1ccc(C(=O)Nc2cccc(Nc3ncc(Cl)c(-c4c[nH]c5ccccc45)n3)c2)cc1")
-2.66

Record NC1CCC(N[C@@H]2C[C@H]2c2ccccc2)CC1 (stereo partly drawn) . Reported Z-AUC: -0.668
